System: MOLT-4 leukemia
test: NCI tumour cell line growth inhibition, 48 h; in the data active = GI50 below about 0.43 µM; inactive = the rest
Hello, when you answer, please use one of the following outcomes: label 1 (active), label 0 (inactive)

Check out these entries, answers already filled in.
INSERT INTO results (molecule, qualitative_label) VALUES
  ('c1cc(N2CCN(c3ccc(C4=NCCN4)cc3)CC2)ccc1C1=NCCN1', 'label 0'),
  ('O=c1ccc(N=Nc2ccccc2)ccc1Cl', 'label 0'),
  ('CCN(CCCNC(=O)Cc1cc(=O)oc2cc(N(C)C)ccc12)CCNc1ccnc2cc(Cl)ccc12', 'label 0'),
  ('CCSc1ccc2c(c1)N(CCCN1CCN(C)CC1)c1ccccc1S2', 'label 0'),
  ('C=C(C)[C@@H]1CC[C@]2(COC(C)=O)CC[C@]3(C)[C@H](CC[C@@H]4[C@@]5(C)CCCN(C(C)=O)C(C)(C)[C@@H]5CC[C@]43C)[C@@H]12', 'label 0'),
  ('CSc1nn2c(-c3ccc4ccccc4c3)ccnc2c1C#N', 'label 0'),
  ('Cc1nn(-c2ccccc2)c(-n2ccnc2)c1/C=N/Nc1nc(-c2ccc(Cl)c(Cl)c2)cs1', 'label 0'),
  ('COC(=O)c1c2c(c(C)[n+]([O-])c1C)C(=O)C(NCc1cccc(Cl)c1)=CC2=O', 'label 0');

Prompt: For this molecule, state the assay outcome: `CN1CCN(Cc2ccc(NC(=O)c3nc4ccc5[nH]ncc5c4c4c3CCCC4)cc2C(F)(F)F)CC1`
Completion: label 0

Prompt: For this molecule, state the assay outcome: `CCOC(=O)c1ccc(NC(=O)Nc2nccs2)cc1`
Completion: label 1

Prompt: For this molecule, state the assay outcome: `Cc1ccc(NS(=O)(=O)c2ccc(-c3cnc(C4CC4)o3)cc2)cc1C`
Completion: label 0

Values from PubChem BioAssay (NCI)
